# assay system: Human JAK2 (Homo sapiens (Human))
# Sequence (O60674 whole entry): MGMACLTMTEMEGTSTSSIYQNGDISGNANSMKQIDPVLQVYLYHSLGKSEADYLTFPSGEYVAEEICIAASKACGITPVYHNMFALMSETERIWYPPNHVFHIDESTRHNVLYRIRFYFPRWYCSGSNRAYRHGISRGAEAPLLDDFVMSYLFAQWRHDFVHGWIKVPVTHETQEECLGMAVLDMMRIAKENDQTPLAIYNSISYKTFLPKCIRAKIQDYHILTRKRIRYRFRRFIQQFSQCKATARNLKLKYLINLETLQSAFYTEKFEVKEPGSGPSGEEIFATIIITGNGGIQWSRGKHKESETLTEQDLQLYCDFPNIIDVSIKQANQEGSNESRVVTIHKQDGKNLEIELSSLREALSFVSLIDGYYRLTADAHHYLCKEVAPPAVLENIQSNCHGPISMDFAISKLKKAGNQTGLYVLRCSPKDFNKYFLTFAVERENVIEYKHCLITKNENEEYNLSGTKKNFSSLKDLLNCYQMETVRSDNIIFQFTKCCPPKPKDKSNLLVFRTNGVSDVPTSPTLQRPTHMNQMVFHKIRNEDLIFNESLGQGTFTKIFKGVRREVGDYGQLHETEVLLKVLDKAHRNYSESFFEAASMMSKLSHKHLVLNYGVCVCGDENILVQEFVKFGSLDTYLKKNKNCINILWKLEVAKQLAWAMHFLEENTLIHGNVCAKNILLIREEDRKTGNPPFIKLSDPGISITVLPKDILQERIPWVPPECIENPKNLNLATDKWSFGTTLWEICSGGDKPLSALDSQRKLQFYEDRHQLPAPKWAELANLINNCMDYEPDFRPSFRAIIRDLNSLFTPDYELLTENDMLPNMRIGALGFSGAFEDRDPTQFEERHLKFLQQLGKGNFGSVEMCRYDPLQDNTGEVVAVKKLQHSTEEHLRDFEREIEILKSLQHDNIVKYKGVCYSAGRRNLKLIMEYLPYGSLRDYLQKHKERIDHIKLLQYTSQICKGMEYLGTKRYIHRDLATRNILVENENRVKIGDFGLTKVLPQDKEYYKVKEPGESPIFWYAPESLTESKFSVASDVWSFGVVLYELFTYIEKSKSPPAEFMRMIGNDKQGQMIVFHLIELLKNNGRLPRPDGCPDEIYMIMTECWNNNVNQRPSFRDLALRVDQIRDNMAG
# procedure text: In vitro kinase inhibition test, JAK2 (33P-ATP filter scintillation)
# Format: biochemical
# measurement context: compound at 1 uM; read-out: JAK2 kinase-phosphorylation inhibitory level (% inhibition)
Task for the reader: assign each of the following molecules its reported inhibition at 1 µM.
Answers are plain numbers, in %.

>  <cpd smiles>
CN(c1ncnc2[nH]ccc12)[C@H]1CN(C(=O)c2ccco2)CC12CC2

>  <assay system>
Human JAK2 (Homo sapiens (Human))

>  <inhibition at 1 µM, %>
10

$$$$
>  <cpd smiles>
CNC(=O)CC(=O)N1C[C@H](N(C)c2ncnc3[nH]ccc23)C2(CC2)C1

>  <assay system>
Human JAK2 (Homo sapiens (Human))

>  <inhibition at 1 µM, %>
-7

$$$$
>  <cpd smiles>
CN(c1ncnc2[nH]ccc12)[C@H]1CN(C(=O)Nc2ccccc2-c2ccccc2)CC12CC2

>  <assay system>
Human JAK2 (Homo sapiens (Human))

>  <inhibition at 1 µM, %>
-11

$$$$
>  <cpd smiles>
CCN1C[C@H](N(C)c2ncnc3[nH]ccc23)C2(CC2)C1

>  <assay system>
Human JAK2 (Homo sapiens (Human))

>  <inhibition at 1 µM, %>
-6

$$$$
>  <cpd smiles>
CC(C)COC(=O)N1C[C@H](N(C)c2ncnc3[nH]ccc23)C2(CC2)C1

>  <assay system>
Human JAK2 (Homo sapiens (Human))

>  <inhibition at 1 µM, %>
27

$$$$

Need inhibition at 1 µM for each of these molecules.
1. CN(c1ncnc2[nH]ccc12)[C@H]1CN(S(=O)(=O)c2ccccc2)CC12CC2
2. CN(c1ncnc2[nH]ccc12)[C@H]1CN(S(=O)(=O)c2ccc(C(F)(F)F)cc2)CC12CC2
3. CN(c1ncnc2[nH]ccc12)[C@H]1CN(C(=O)c2ccc(C#N)cc2)CC12CC2

90
36
13

====

# assay system: Human TYK2 (Homo sapiens (Human))
# procedure text: In vitro kinase inhibition test, TYK2 (33P-ATP filter scintillation)
# Type: biochemical
# measurement context: compound at 1 uM; read-out: TYK2 kinase-phosphorylation inhibitory level (% inhibition)
param class (str): category from inhibition at 1 µM; see ranges low bin: < 10%; mid bin: ≥ 10% and < 60%; high bin: ≥ 60%

>  <compound>
CN(c1ncnc2[nH]ccc12)[C@H]1CN(C(=O)c2ccc(C#N)cc2)CC12CC2 [Example 16]

>  <class assignment>
mid bin

$$$$
>  <compound>
CN(c1ncnc2[nH]ccc12)[C@H]1CN(C(=O)C2CC2)CC12CC2 [Example 9]

>  <class assignment>
high bin

$$$$

Entry CC(=O)NCC(=O)N1C[C@H](N(C)c2ncnc3[nH]ccc23)C2(CC2)C1 [Example 7] belongs to which category?
low bin

Category of CCN1C[C@H](N(C)c2ncnc3[nH]ccc23)C2(CC2)C1 [Example 73] :
low bin

// bin(item) where item = CN(c1ncnc2[nH]ccc12)[C@@H]1CN(C(=O)c2ccc(C#N)cc2)CC12CC2 [Example 68]
low bin

Input CN(c1ncnc2[nH]ccc12)[C@H]1CN(S(=O)(=O)c2ccc(C(F)(F)F)cc2)CC12CC2 [Example 48] ; output its category
high bin

Field: class (inhibition at 1 µM) — entry: COc1ccc(S(=O)(=O)N2C[C@H](N(C)c3ncnc4[nH]ccc34)C3(CC3)C2)cc1 [Example 47]
high bin

Hey, which category is CN(c1ncnc2[nH]ccc12)[C@H]1CN(C(=O)c2cccc(C(F)(F)F)c2)CC12CC2 [Example 18] in, do you know?
mid bin

Which bin, given its inhibition at 1 µM, does CNC(=O)CC(=O)N1C[C@H](N(C)c2ncnc3[nH]ccc23)C2(CC2)C1 [Example 8] occupy?
mid bin

Category of CCCCN1C[C@H](N(C)c2ncnc3[nH]ccc23)C2(CC2)C1 [Example 1] , please.
low bin

# bin lookup: classify CN(c1ncnc2[nH]ccc12)[C@H]1CN(C(=O)c2ccncc2)CC12CC2 [Example 14] by its inhibition at 1 µM
mid bin

====

# assay system: Human JAK1 (Homo sapiens (Human), UniProt P23458)
# Sequence (P23458 whole entry): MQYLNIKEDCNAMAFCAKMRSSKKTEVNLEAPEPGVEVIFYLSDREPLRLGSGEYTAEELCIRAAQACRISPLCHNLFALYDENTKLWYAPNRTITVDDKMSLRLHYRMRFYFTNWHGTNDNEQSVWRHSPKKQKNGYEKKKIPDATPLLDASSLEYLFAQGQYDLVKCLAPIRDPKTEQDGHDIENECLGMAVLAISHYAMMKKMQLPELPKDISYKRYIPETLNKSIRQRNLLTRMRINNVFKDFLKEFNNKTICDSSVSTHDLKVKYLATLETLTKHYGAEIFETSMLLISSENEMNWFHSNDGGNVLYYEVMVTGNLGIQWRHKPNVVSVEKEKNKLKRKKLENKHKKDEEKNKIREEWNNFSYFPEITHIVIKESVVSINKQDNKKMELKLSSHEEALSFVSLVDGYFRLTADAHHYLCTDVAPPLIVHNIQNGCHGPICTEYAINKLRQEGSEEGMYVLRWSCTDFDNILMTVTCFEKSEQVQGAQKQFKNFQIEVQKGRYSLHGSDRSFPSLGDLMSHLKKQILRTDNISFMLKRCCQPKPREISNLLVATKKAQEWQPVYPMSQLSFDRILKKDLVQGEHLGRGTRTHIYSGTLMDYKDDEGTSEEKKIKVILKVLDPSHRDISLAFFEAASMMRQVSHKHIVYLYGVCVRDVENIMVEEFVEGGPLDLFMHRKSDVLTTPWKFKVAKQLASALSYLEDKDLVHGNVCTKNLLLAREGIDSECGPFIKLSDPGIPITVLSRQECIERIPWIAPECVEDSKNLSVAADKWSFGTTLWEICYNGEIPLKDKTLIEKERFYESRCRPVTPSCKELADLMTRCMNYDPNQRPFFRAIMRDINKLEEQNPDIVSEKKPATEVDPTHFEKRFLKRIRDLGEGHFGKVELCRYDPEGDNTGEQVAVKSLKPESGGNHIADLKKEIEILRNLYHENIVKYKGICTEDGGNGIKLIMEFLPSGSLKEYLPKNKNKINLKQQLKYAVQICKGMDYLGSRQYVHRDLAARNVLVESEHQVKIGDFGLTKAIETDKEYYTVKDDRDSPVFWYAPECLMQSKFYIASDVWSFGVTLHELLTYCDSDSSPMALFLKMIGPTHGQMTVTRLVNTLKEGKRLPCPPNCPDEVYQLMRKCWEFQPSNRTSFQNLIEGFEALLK
# procedure text: In vitro kinase inhibition test, JAK1 (33P-ATP filter scintillation)
# Format: biochemical
# measurement context: compound at 1 uM; read-out: JAK1 kinase-phosphorylation inhibitory level (% inhibition)
Exercise: for every item that follows, state its recorded inhibition at 1 µM.
Answer by giving the amount and then stating its unit.

>  <compound>
CN(c1ncnc2[nH]ccc12)[C@H]1CN(S(=O)(=O)c2ccccc2C#N)CC12CC2 [Example 40]

>  <inhibition at 1 µM>
94%

$$$$
>  <compound>
CN(c1ncnc2[nH]ccc12)[C@@H]1CN(C(=O)CC#N)CC12CC2 [Example 66]

>  <inhibition at 1 µM>
65%

$$$$
>  <compound>
CN(c1ncnc2[nH]ccc12)[C@H]1CN(C(=O)c2cccc(C(F)(F)F)c2)CC12CC2 [Example 18]

>  <inhibition at 1 µM>
71%

$$$$
>  <compound>
Cc1cccc(S(=O)(=O)N2C[C@H](N(C)c3ncnc4[nH]ccc34)C3(CC3)C2)c1 [Example 46]

>  <inhibition at 1 µM>
98%

$$$$
>  <compound>
CN(c1ncnc2[nH]ccc12)[C@@H]1CN(C(=O)c2ccc(C#N)cc2)CC12CC2 [Example 68]

>  <inhibition at 1 µM>
14%

$$$$
>  <compound>
CN(c1ncnc2[nH]ccc12)C1CN(C(=O)Cn2ccnc2)CC12CC2 (centres unmarked) [Example 59]

>  <inhibition at 1 µM>
72%

$$$$

Could I get inhibition at 1 µM for every one of these entries?
1. CN(c1ncnc2[nH]ccc12)[C@H]1CN(C(=O)C2CC2)CC12CC2 [Example 9]
2. CN(c1ncnc2[nH]ccc12)[C@H]1CN(S(=O)(=O)c2ccccc2[N+](=O)[O-])CC12CC2 [Example 43]

1. 90%
2. 97%

====

# assay system: Human TYK2 (Homo sapiens (Human), UniProt P29597)
# Sequence (P29597 whole entry): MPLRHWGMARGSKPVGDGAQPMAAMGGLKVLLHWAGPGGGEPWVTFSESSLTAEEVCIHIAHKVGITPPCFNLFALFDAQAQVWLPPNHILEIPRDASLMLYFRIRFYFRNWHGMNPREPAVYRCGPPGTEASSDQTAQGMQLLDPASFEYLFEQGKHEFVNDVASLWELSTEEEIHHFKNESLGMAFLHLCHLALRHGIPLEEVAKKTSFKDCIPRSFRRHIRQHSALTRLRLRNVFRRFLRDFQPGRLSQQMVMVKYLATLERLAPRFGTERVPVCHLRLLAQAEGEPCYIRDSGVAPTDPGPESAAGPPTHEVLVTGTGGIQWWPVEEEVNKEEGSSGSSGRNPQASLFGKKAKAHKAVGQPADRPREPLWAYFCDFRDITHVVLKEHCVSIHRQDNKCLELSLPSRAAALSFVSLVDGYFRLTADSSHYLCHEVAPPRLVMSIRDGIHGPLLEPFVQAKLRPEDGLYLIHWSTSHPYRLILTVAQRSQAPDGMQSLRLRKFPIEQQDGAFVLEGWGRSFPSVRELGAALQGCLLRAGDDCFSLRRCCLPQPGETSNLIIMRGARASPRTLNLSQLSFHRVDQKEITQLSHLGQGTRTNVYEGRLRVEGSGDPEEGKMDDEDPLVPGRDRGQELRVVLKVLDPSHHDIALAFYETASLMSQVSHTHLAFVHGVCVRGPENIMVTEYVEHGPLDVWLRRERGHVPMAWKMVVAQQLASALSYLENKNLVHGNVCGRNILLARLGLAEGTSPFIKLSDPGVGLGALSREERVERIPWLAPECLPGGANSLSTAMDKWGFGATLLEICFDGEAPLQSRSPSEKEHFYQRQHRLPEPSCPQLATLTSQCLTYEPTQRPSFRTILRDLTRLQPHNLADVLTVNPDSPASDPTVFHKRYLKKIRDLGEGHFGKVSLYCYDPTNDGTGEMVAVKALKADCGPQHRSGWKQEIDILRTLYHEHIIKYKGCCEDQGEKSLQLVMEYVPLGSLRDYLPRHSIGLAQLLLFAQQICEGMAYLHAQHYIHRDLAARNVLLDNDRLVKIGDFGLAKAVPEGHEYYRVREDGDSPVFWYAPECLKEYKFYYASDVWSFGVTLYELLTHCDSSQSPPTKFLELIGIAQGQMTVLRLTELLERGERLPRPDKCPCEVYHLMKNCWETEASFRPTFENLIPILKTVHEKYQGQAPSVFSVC
# procedure text: In vitro kinase inhibition test, TYK2 (33P-ATP filter scintillation)
# Assay type: biochemical
# measurement context: compound at 1 uM; read-out: TYK2 kinase-phosphorylation inhibitory level (% inhibition)
value kind: inhibition at 1 µM (%)
Answers are plain numbers, in %.

The examples below pair each entry with its known result.
>  <compound>
Cc1ccc(NC(=O)N2C[C@H](N(C)c3ncnc4[nH]ccc34)C3(CC3)C2)cc1Cl

>  <number>
43

$$$$
>  <compound>
CCS(=O)(=O)N1C[C@@H](N(C)c2ncnc3[nH]ccc23)C2(CC2)C1

>  <number>
12

$$$$
>  <compound>
CN(c1ncnc2[nH]ccc12)C1CN(C(=O)Cn2ccnc2)CC12CC2 (stereo not shown)

>  <number>
-8

$$$$
>  <compound>
CN(c1ncnc2[nH]ccc12)[C@H]1CN(C(=O)Nc2ccccc2-c2ccccc2)CC12CC2

>  <number>
27

$$$$
>  <compound>
CN(c1ncnc2[nH]ccc12)[C@H]1CN(C(=O)CN=[N+]=[N-])CC12CC2

>  <number>
78

$$$$

I'm hoping you can list inhibition at 1 µM for every compound here, please.
1. CC(=O)N1CCC(C(=O)N2C[C@H](N(C)c3ncnc4[nH]ccc34)C3(CC3)C2)CC1
2. CN(c1ncnc2[nH]ccc12)[C@@H]1CN(S(=O)(=O)c2ccccc2)CC12CC2
3. CN(c1ncnc2[nH]ccc12)[C@H]1CN(S(=O)(=O)c2ccccc2F)CC12CC2
4. CN(c1ncnc2[nH]ccc12)[C@H]1CN(C(=O)c2ccccc2)CC12CC2

52
28
90
30

====

For each record, write down the corresponding inhibition at 1 µM.
# assay system: Human JAK1 (Homo sapiens (Human), UniProt P23458)
# procedure text: In vitro kinase inhibition test, JAK1 (33P-ATP filter scintillation)
# Type: biochemical
# measurement context: compound at 1 uM; read-out: JAK1 kinase-phosphorylation inhibitory level (% inhibition)
Report as: number unit

>  <compound>
CN(c1ncnc2[nH]ccc12)[C@H]1CN(S(=O)(=O)c2ccc(F)cc2)CC12CC2 [Example 39]

>  <inhibition at 1 µM>
99%

$$$$

Hi, could you look up inhibition at 1 µM for each item in my list?
1. CC(=O)NCC(=O)N1C[C@H](N(C)c2ncnc3[nH]ccc23)C2(CC2)C1 [Example 7]
2. CN(c1ncnc2[nH]ccc12)[C@H]1CN(C(=O)CN=[N+]=[N-])CC12CC2 [Example 4]
3. CN(c1ncnc2[nH]ccc12)C1CN(C(=S)CC#N)CC12CC2 (centres unmarked) [Example 60]
4. CN(c1ncnc2[nH]ccc12)[C@@H]1CN(C(=S)CC#N)CC12CC2 [Example 69]
5. CCCS(=O)(=O)N1C[C@H](N(C)c2ncnc3[nH]ccc23)C2(CC2)C1 [Example 35]

1: 70%; 2: 95%; 3: 96%; 4: 58%; 5: 99%

List inhibition at 1 µM for every entry below, keeping the order given.
1. CN(c1ncnc2[nH]ccc12)[C@H]1CN(C(=O)NC2CCCCC2)CC12CC2 [Example 22]
2. CCC(=O)N1C[C@@H](N(C)c2ncnc3[nH]ccc23)C2(CC2)C1 [Example 64]
3. CN(c1ncnc2[nH]ccc12)[C@H]1CN(C(=O)Nc2cc(Cl)ccc2Cl)CC12CC2 [Example 27]
4. COCC(=O)N1CC(N(C)c2ncnc3[nH]ccc23)C2(CC2)C1 (centres unmarked) [Example 53]
5. CN(c1ncnc2[nH]ccc12)C1CN(C(=O)CN=[N+]=[N-])CC12CC2 (centres unmarked) [Example 54]
6. CN(c1ncnc2[nH]ccc12)[C@H]1CN(S(=O)(=O)c2ccc([N+](=O)[O-])cc2)CC12CC2 [Example 45]

1: 90%; 2: 16%; 3: 91%; 4: 76%; 5: 94%; 6: 100%

Give inhibition at 1 µM for each listed item.
1. CN(c1ncnc2[nH]ccc12)[C@H]1CN(C(=O)c2ccncc2)CC12CC2 [Example 14]
2. CCS(=O)(=O)N1C[C@H](N(C)c2ncnc3[nH]ccc23)C2(CC2)C1 [Example 33]
3. CCS(=O)(=O)N1CC(N(C)c2ncnc3[nH]ccc23)C2(CC2)C1 (racemic) [Example 62]
4. CNC(=O)CC(=O)N1C[C@H](N(C)c2ncnc3[nH]ccc23)C2(CC2)C1 [Example 8]
5. CCC(=O)N1CC(N(C)c2ncnc3[nH]ccc23)C2(CC2)C1 (centres unmarked) [Example 52]

1: 84%; 2: 98%; 3: 95%; 4: 61%; 5: 58%
